- measuredTarget: mAChR M4 (UniProt P08173)
- Construct: hM1 and hM4 cDNAs were purchased from Missouri S&T cDNA Resource
- experimentDescription: mAChR M4 cell-based functional assay (calcium mobilization, Fluo-4, FDSS)
- protocolConditions: % ACh maximum at 30 μM
experimentalReadout: Emax (%)*

>  <compound>
CCC(=O)Nc1nn(C)c2c1sc1nc(C)cc(C)c12 [Compound 47]

>  <readoutUnit>
%

>  <Emax (%)*>
43

$$$$
>  <compound>
Cc1cc(C)c2c(n1)sc1c(NCc3nccs3)nn(C)c12 [Compound 100]

>  <readoutUnit>
%

>  <Emax (%)*>
47

$$$$
>  <compound>
Cc1nc2sc3c(NCc4cccs4)n[nH]c3c2c(C)c1Cl [Compound 21]

>  <readoutUnit>
%

>  <Emax (%)*>
39

$$$$
>  <compound>
Cc1cc(C)c2c(n1)sc1c(NCc3ccccc3F)nn(C)c12 [Compound 57]

>  <readoutUnit>
%

>  <Emax (%)*>
70

$$$$
>  <compound>
Cc1cc(C)c2c(n1)sc1c(NC(C)C)n[nH]c12 [Compound 11]

>  <readoutUnit>
%

>  <Emax (%)*>
59

$$$$

1: Cc1cc(C)c2c(n1)sc1c(NCc3cccc4c3OCO4)nn(C)c12 [Compound 84]
2: Cc1cc(C)c2c(n1)sc1c(NCc3scnc3C)nn(CCO)c12 [Compound 110]
In the pair 1 and 2 , the larger recorded Emax (%)* belongs to which? Return value: the label identifying the chosen record. 2
(2: 72%, 1: 50%)

----------
- measuredTarget: mAChR M4 (UniProt P08173)
- Construct: hM1 and hM4 cDNAs were purchased from Missouri S&T cDNA Resource
- experimentDescription: mAChR M4 cell-based functional assay (calcium mobilization, Fluo-4, FDSS)
- protocolConditions: positive allosteric modulator activity: concentration-dependent increase in the EC20 acetylcholine response, CHO-K1 cells; >10 μM estimated for low potency (no plateau)
experimentalReadout: EC50 (µM)

A: Cc1cc(C)c2c(n1)sc1c(NCc3ccc4c(c3)OCCO4)nn(C)c12
B: Cc1cc(C)c2c(n1)sc1c(NCc3ccco3)nn(C)c12
In the pair A and B , the larger recorded EC50 belongs to which? Return value: the label identifying the chosen record. A
(A: 0.16 µM, B: 0.11 µM)

----------
- measuredTarget: mAChR M4 (UniProt P08173)
- Construct: hM1 and hM4 cDNAs were purchased from Missouri S&T cDNA Resource
- experimentDescription: mAChR M4 cell-based functional assay (calcium mobilization, Fluo-4, FDSS)
- protocolConditions: positive allosteric modulator activity: concentration-dependent increase in the EC20 acetylcholine response, CHO-K1 cells; >10 μM estimated for low potency (no plateau)
experimentalReadout: EC50 (nM)

Known results for molecules:
>  <molecule>
Cc1cc(C)c2c(n1)sc1c(N)nn(CCO)c12

>  <EC50 [nM]>
5400

$$$$
>  <molecule>
CC(=O)N1CCC(CNc2nn(C)c3c2sc2nc(C)cc(C)c23)CC1

>  <EC50 [nM]>
990

$$$$
>  <molecule>
Cc1cc(C)c2c(n1)sc1c(NCCC(C)C)nn(C)c12

>  <EC50 [nM]>
190

$$$$
>  <molecule>
Cc1cc(C)c2c(n1)sc1c(NC3CCOC3)nn(CCO)c12 (stereo not shown)

>  <EC50 [nM]>
820

$$$$
>  <molecule>
Cc1ccc2c(n1)sc1c(NCC3CC3)n[nH]c12

>  <EC50 [nM]>
4500

$$$$
>  <molecule>
Cc1cc(C)c2c(n1)sc1c(NC3CCOCC3)nn(CCO)c12

>  <EC50 [nM]>
1900

$$$$
>  <molecule>
COc1ccc(CNc2n[nH]c3c2sc2nc(C)cc(C)c23)cc1

>  <EC50 [nM]>
1150

$$$$

a: Cc1cc(C)c2c(n1)sc1c(NCc3ccc(F)cc3)nn(C)c12
b: Cc1cc(C)c2c(n1)sc1c(NCc3ccccc3F)nn(C)c12
c: Cc1ccc2c(n1)sc1c(NCCC(C)C)nn(C)c12
// ranking: key=EC50, reverse=True In plain terms: list the labels in the order you were asked to. c, a, b
